- System: HSkMC
- assay_name: cytotoxicity call (relative viability < 0.9)
- stated_conditions: 10 µM
Screen size: about 39,000 compounds; about 1,500 (3.8%) were called active. The sample as a whole holds a higher share of actives than the screen did.
Can you answer with just one of these options? active, inactive

INSERT INTO assay_data (smiles_string, cat) VALUES
  ('C[C@H](CO)N1C[C@H](C)[C@@H](CN(C)C(=O)Nc2cccc3ccccc23)Oc2c(NC(=O)Nc3ccc(C(F)(F)F)cc3)cccc2C1=O', 'inactive'),
  ('CCOCCOCCOc1oc(C(=O)NC2CCCCC2)c(-c2ccc(Cl)cc2)c1S(=O)(=O)c1ccc(Cl)cc1', 'inactive'),
  ('C[C@@H]1CN([C@H](C)CO)C(=O)c2cccc(NC(=O)Nc3ccc(C(F)(F)F)cc3)c2O[C@@H]1CN(C)C(=O)Nc1cccc2ccccc12', 'active');

Now take the following compound into account.
Q) What call does the record list for C[C@@H]1CN([C@H](C)CO)C(=O)c2cccc(NC(=O)Nc3ccc(C(F)(F)F)cc3)c2O[C@H]1CN(C)C(=O)Nc1cccc2ccccc12 ?
A) inactive

* * *

- Tested on: HSkMC
- assay_name: cytotoxicity call (relative viability < 0.9)
- stated_conditions: 10 µM
In all, about 39,000 compounds went through this assay and about 1,500 (3.8%) were called active. The list comes from a sample in which actives are over-represented; it also holds close analogues and randomly drawn compounds.
Return exactly one item of active, inactive

Example results:
INSERT INTO results (smiles_string, cat) VALUES
  ('O=C(NCCN1CCOCC1)c1ccccn1', 'inactive'),
  ('COc1ccc(S(=O)(=O)Nc2ccc3c(c2)C(=O)N([C@H](C)CO)C[C@H](C)[C@H](CN(C)Cc2ccc(C(F)(F)F)cc2)OCCCC[C@@H](C)O3)cc1', 'inactive'),
  ('C[C@@H]1CCCCO[C@H](CN(C)Cc2ccc(C(F)(F)F)cc2)[C@H](C)CN([C@H](C)CO)C(=O)c2cc(NC(=O)Nc3ccc(C(F)(F)F)cc3)ccc2O1', 'active'),
  ('Cc1ccc(-n2nc(C(C)(C)C)cc2NC(=O)Nc2ccc(OCCN3CCOCC3)c3ccccc23)cc1', 'active'),
  ('C[C@@H]1CN([C@@H](C)CO)C(=O)c2cc(NC(=O)C3CC3)ccc2O[C@H]1CN(C)C(=O)Nc1ccc2c(c1)OCO2', 'inactive'),
  ('COc1ccc(S(=O)(=O)Nc2ccc3c(c2)C(=O)N([C@H](C)CO)C[C@@H](C)[C@H](CN(C)Cc2ccc(C(F)(F)F)cc2)OCCCC[C@H](C)O3)cc1', 'inactive');

Q) Recorded test outcome, item CC(C)NC(=O)Nc1ccc2c(c1)C(=O)N([C@@H](C)CO)C[C@@H](C)[C@@H](CN(C)S(C)(=O)=O)OCCCC[C@@H](C)O2
A) inactive

* * *

- Tested on: HSkMC (human skeletal muscle cells)
- assay_name: cytotoxicity call (relative viability < 0.9)
- stated_conditions: 10 µM
In all, about 39,000 compounds went through this assay and about 1,500 (3.8%) were called active. The sample holds actives, similar compounds and a random draw of the others, so the mix is not that of the screen.
Returns: one label drawn from Y = active, N = inactive

A selection of reference data follows.
INSERT INTO measurements (smiles_string, target, cat) VALUES
  ('C[C@@H]1CN([C@H](C)CO)C(=O)Cc2cc(NC(=O)Nc3ccc(F)cc3)ccc2O[C@@H]1CN(C)Cc1ccc(Cl)c(Cl)c1', 'HSkMC', 'Y'),
  ('C[C@@H]1CCCCO[C@@H](CN(C)C(=O)Nc2ccc(C(F)(F)F)cc2)[C@@H](C)CN([C@H](C)CO)C(=O)c2cc(NC(=O)Nc3cccc4ccccc34)ccc2O1', 'HSkMC', 'N');

Q) Dear all, I need the recorded test outcome for C[C@H]1CN([C@@H](C)CO)C(=O)Cc2cc(NC(=O)Nc3ccc(F)cc3)ccc2O[C@H]1CN(C)Cc1ccc(Cl)c(Cl)c1 , thank you.
A) Y

Q) Outcome logged for COc1ccc(S(=O)(=O)N(C)C[C@H]2OCCCC[C@@H](C)Oc3ccc(NC(=O)Nc4ccc(C(F)(F)F)cc4)cc3C(=O)N([C@@H](C)CO)C[C@@H]2C)cc1 in this assay:
A) Y
